Cited source: patent US12441723B2

# method.notes: Pharmacokinetics in male cynomolgus monkeys (co-crystal capsules, spray-dried dispersion)
# Type: in vivo
# measurement.conditions: cynomolgus monkey, plasma, po, n=3, capsule with equivalent of 25 mg free base compound I-1, read-out: % F (percent bioavailability)
value.type: bioavailability (%)

# molecule.smiles, unit.text, recorded.result
data = [
    ("CCO[C@H]1CC[C@H](n2cc(NC(=O)c3csc(-c4cn[nH]c4)n3)c(-c3nc(F)ccc3F)n2)CC1", "%", 7.9),
]

----------
# method.notes: Pharmacokinetics in male cynomolgus monkeys (co-crystal capsules, spray-dried dispersion)
# Type: in vivo
# measurement.conditions: cynomolgus monkey, po, n=3, capsule with equivalent of 25 mg free base compound I-1, plasma, normalized to 5 mg/kg of compound I-1, read-out: Average AUC0-24 h ± SD (5 mg/kg basis)
value.type: AUC(0-t) (ng·h/mL)

# molecule.smiles, unit.text, recorded.result
rows = [
    ("CCO[C@H]1CC[C@H](n2cc(NC(=O)c3csc(-c4cn[nH]c4)n3)c(-c3nc(F)ccc3F)n2)CC1", "ng·h/mL", 921),
]
